Origin of the recorded values: patent US9844550B2

# AUC per entry
# assay-comment: Mouse pharmacokinetics
# Assay type: in vivo
# Parameters: concentration or dose not given beside the values
# settings: Balb/c male mice, blood samples 15 to 1140 min, LC-MS/MS
State the answer as a number, implicitly in ng·h/mL.

Answered examples (3):
INSERT INTO measurements (mol, measured_number) VALUES
  ('O=C(c1cc(Cc2n[nH]c(=O)c3ccccc23)ccc1F)N1CC(CNC2CCC2)C1', 472),
  ('O=C(c1cc(Cc2n[nH]c(=O)c3ccccc23)ccc1F)N1CC(N2CCC2)C1', 475),
  ('CC(C)CNCC1CN(C(=O)c2cc(Cc3n[nH]c(=O)c4ccccc34)ccc2F)C1', 1090);

Next item in the queue.
[ask] For C#CCNCC1CN(C(=O)c2cc(Cc3n[nH]c(=O)c4ccccc34)ccc2F)C1 , write its AUC.
[reply] 169

###

# assay-comment: Mouse pharmacokinetics
# Assay type: in vivo
# Parameters: concentration or dose not given beside the values
# settings: Balb/c male mice, blood samples 15 to 1140 min, LC-MS/MS
In this section, each of the compounds is paired with its reported AUC.
Please answer in the form of a number followed by its unit of measurement.

INSERT INTO assay_data (mol, parameter_measured, result) VALUES
  ('O=C(c1cc(Cc2n[nH]c(=O)c3ccccc23)ccc1F)N1CC(CN2CCCCC2)C1', 'AUC', '193 ng·h/mL');

[ask] Let me know recorded AUC for N#CC1(NC2CN(C(=O)c3cc(Cc4n[nH]c(=O)c5ccccc45)ccc3F)C2)CCC1 , thanks.
[reply] 586 ng·h/mL

[ask] Indicate the recorded AUC value for this compound: O=C(c1cc(Cc2n[nH]c(=O)c3ccccc23)ccc1F)N1CC[C@@H](NC2CCC2)C1
[reply] 521 ng·h/mL

[ask] Return AUC for the following compound: O=C(c1cc(Cc2n[nH]c(=O)c3ccccc23)ccc1F)N1CC(CNC2CC2)C1
[reply] 673 ng·h/mL

###

# System: Capan-1 Human pancreatic cancer cells
# assay-comment: In vivo antitumoral efficacy, Capan-1 subcutaneous xenograft
# settings: 100 mg/kg po qd x 5, 3 consecutive weeks, Capan-1 xenograft in Balb/c nude mice
# Protocol: To evaluate the in vivo antitumoral efficacy, the invented compounds (I-80˜171) was determined as a result to follows. […] Animals were weighed and tumor size was determined twice weekly by caliper measurements, and tumor volumes were calculated (volume=[…] (mm^3), where l and w refer to the larger and smaller dimensions collected at each measurement). The mean tumor volumes of each group were calculated. […]
parameter-measured: % TGI (%)
Give the value in % but do not write % after it.

In the examples that follow, each entry is paired with its recorded % TGI.
INSERT INTO assay_data (mol, target_system, measured_number) VALUES
  ('Cl.O=C(c1cc(Cc2n[nH]c(=O)c3ccccc23)ccc1F)N1CC(NCC2CC2)C1', 'Capan-1 Human pancreatic cancer cells', 55.8),
  ('Cl.O=C(c1cc(Cc2n[nH]c(=O)c3ccccc23)ccc1F)N1CC(NC2CCCC2)C1', 'Capan-1 Human pancreatic cancer cells', 44.9),
  ('O=C(c1cc(Cc2n[nH]c(=O)c3ccccc23)ccc1F)N1CC(NC2(C(F)(F)F)CC2)C1', 'Capan-1 Human pancreatic cancer cells', 75.9);

Switching to the query record.
[ask] Using the record for CC(C)NC1CN(C(=O)c2cc(Cc3n[nH]c(=O)c4ccccc34)ccc2F)C1.Cl , state its measured % TGI.
[reply] 59.4
